B1: FERM and PDZ domain-containing protein 4, residues 75 to 154; numbered along this chain, Q14CM0 (parent)
chain: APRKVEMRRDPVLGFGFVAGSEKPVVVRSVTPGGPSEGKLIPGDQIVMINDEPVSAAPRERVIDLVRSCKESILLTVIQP

variants of: B1; assay: abundance fitness (aPCA) (normalised: wild type 0, dead -1); higher = more abundant; growth selection in yeast, the domain comes from the species named; conditions: Homo sapiens

[
  {
    "variant.designation": "R8Q",
    "abundance fitness": 0.018
  },
  {
    "variant.designation": "T76L",
    "abundance fitness": -0.163
  },
  {
    "variant.designation": "Q79W",
    "abundance fitness": -0.233
  },
  {
    "variant.designation": "V54W",
    "abundance fitness": -1.07
  },
  {
    "variant.designation": "E52Q",
    "abundance fitness": -0.012
  },
  {
    "variant.designation": "D51M",
    "abundance fitness": -0.077
  },
  {
    "variant.designation": "V30H",
    "abundance fitness": -0.967
  },
  {
    "variant.designation": "G43C",
    "abundance fitness": -0.252
  },
  {
    "variant.designation": "T76Y",
    "abundance fitness": -0.005
  },
  {
    "variant.designation": "V25C",
    "abundance fitness": -0.005
  },
  {
    "variant.designation": "E52K",
    "abundance fitness": -0.066
  },
  {
    "variant.designation": "I78Q",
    "abundance fitness": 0.025
  },
  {
    "variant.designation": "V25G",
    "abundance fitness": -0.467
  },
  {
    "variant.designation": "E37D",
    "abundance fitness": -0.028
  },
  {
    "variant.designation": "M7W",
    "abundance fitness": -1.02
  },
  {
    "variant.designation": "V66N",
    "abundance fitness": -0.733
  },
  {
    "variant.designation": "P35Q",
    "abundance fitness": -0.33
  },
  {
    "variant.designation": "E6N",
    "abundance fitness": -0.014
  },
  {
    "variant.designation": "I63V",
    "abundance fitness": -0.002
  },
  {
    "variant.designation": "P2W",
    "abundance fitness": -0.119
  },
  {
    "variant.designation": "C69M",
    "abundance fitness": -0.1
  },
  {
    "variant.designation": "E6Y",
    "abundance fitness": 0.007
  },
  {
    "variant.designation": "R9T",
    "abundance fitness": -0.277
  },
  {
    "variant.designation": "V66M",
    "abundance fitness": -0.004
  },
  {
    "variant.designation": "G16A",
    "abundance fitness": -0.499
  },
  {
    "variant.designation": "M48E",
    "abundance fitness": -0.028
  },
  {
    "variant.designation": "I46V",
    "abundance fitness": -0.014
  },
  {
    "variant.designation": "T76Q",
    "abundance fitness": -0.095
  },
  {
    "variant.designation": "A57Q",
    "abundance fitness": -0.028
  },
  {
    "variant.designation": "P32G",
    "abundance fitness": -0.098
  },
  {
    "variant.designation": "T76I",
    "abundance fitness": -0.156
  },
  {
    "variant.designation": "P2N",
    "abundance fitness": -0.003
  },
  {
    "variant.designation": "P42Q",
    "abundance fitness": -0.043
  },
  {
    "variant.designation": "T31S",
    "abundance fitness": -0.001
  },
  {
    "variant.designation": "M7Q",
    "abundance fitness": -0.937
  },
  {
    "variant.designation": "I46N",
    "abundance fitness": -0.679
  },
  {
    "variant.designation": "S72K",
    "abundance fitness": 0.009
  },
  {
    "variant.designation": "E22I",
    "abundance fitness": -0.336
  },
  {
    "variant.designation": "V26H",
    "abundance fitness": -0.159
  },
  {
    "variant.designation": "V5E",
    "abundance fitness": -0.192
  },
  {
    "variant.designation": "R67I",
    "abundance fitness": -0.159
  },
  {
    "variant.designation": "S21D",
    "abundance fitness": -0.003
  },
  {
    "variant.designation": "R28T",
    "abundance fitness": 0.005
  },
  {
    "variant.designation": "F15D",
    "abundance fitness": -0.781
  },
  {
    "variant.designation": "A57S",
    "abundance fitness": -0.009
  },
  {
    "variant.designation": "D10M",
    "abundance fitness": -0.207
  },
  {
    "variant.designation": "V5H",
    "abundance fitness": -0.349
  },
  {
    "variant.designation": "G16I",
    "abundance fitness": -1.32
  },
  {
    "variant.designation": "R59Q",
    "abundance fitness": 0.022
  },
  {
    "variant.designation": "P80T",
    "abundance fitness": -0.066
  },
  {
    "variant.designation": "G38S",
    "abundance fitness": -0.124
  },
  {
    "variant.designation": "K39L",
    "abundance fitness": 0.005
  },
  {
    "variant.designation": "F17T",
    "abundance fitness": -0.887
  },
  {
    "variant.designation": "R61D",
    "abundance fitness": -0.021
  },
  {
    "variant.designation": "I78F",
    "abundance fitness": -0.042
  },
  {
    "variant.designation": "A19N",
    "abundance fitness": -0.286
  },
  {
    "variant.designation": "V77H",
    "abundance fitness": -0.681
  },
  {
    "variant.designation": "P24S",
    "abundance fitness": -0.48
  },
  {
    "variant.designation": "E60C",
    "abundance fitness": -0.059
  },
  {
    "variant.designation": "P58E",
    "abundance fitness": -0.06
  },
  {
    "variant.designation": "C69N",
    "abundance fitness": -0.056
  },
  {
    "variant.designation": "G20K",
    "abundance fitness": -0.093
  },
  {
    "variant.designation": "V26D",
    "abundance fitness": -0.135
  },
  {
    "variant.designation": "I63P",
    "abundance fitness": -0.846
  },
  {
    "variant.designation": "L65W",
    "abundance fitness": -0.244
  },
  {
    "variant.designation": "F15C",
    "abundance fitness": -0.758
  },
  {
    "variant.designation": "V54T",
    "abundance fitness": -0.13
  },
  {
    "variant.designation": "F17V",
    "abundance fitness": -0.704
  },
  {
    "variant.designation": "T31K",
    "abundance fitness": -0.012
  },
  {
    "variant.designation": "I73V",
    "abundance fitness": -0.025
  },
  {
    "variant.designation": "S29A",
    "abundance fitness": -0.074
  },
  {
    "variant.designation": "D10H",
    "abundance fitness": -0.12
  },
  {
    "variant.designation": "V12M",
    "abundance fitness": 0.007
  },
  {
    "variant.designation": "D64S",
    "abundance fitness": -0.023
  },
  {
    "variant.designation": "K70Q",
    "abundance fitness": -0.078
  },
  {
    "variant.designation": "K70F",
    "abundance fitness": -0.256
  }
]
